All figures here come from the supplement of paper PMC6757056.

B1: library; a variant is named by its letters at N, in order (parent)
chain: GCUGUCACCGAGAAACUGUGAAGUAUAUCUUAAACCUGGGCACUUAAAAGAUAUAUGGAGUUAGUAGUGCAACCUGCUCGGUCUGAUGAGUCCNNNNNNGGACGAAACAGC

- Variants of: B1
- protocol-notes: FACS-Seq fitted mean relative fluorescence mCherry/BFP with ligand (log10 relative fluorescence); HEK293T; ligand: cyclic di-GMP (c-di-GMP-II aptamer); ligand concentration (+) FACS-Seq: 1 mM; higher = higher reporter protein expression
- experimental-context: ligand present: yes
observed-property: FACS-Seq fitted mean (log10)
Give the figure only, with no unit attached.

Check out these entries, answers already filled in.
{"mutation-key": "AUUAGC", "observed-property": "FACS-Seq fitted mean (log10)", "recorded-number": 0.226}
{"mutation-key": "UCUUGA", "observed-property": "FACS-Seq fitted mean (log10)", "recorded-number": -0.542}
{"mutation-key": "GCAAAG", "observed-property": "FACS-Seq fitted mean (log10)", "recorded-number": -0.278}
{"mutation-key": "AUAGUU", "observed-property": "FACS-Seq fitted mean (log10)", "recorded-number": -0.438}
{"mutation-key": "AUGAGU", "observed-property": "FACS-Seq fitted mean (log10)", "recorded-number": -0.0836}

Consider the variant `ACGGAG` . State its measured FACS-Seq fitted mean (log10).
-0.151

Consider the variant `GUAUUG` . State its measured FACS-Seq fitted mean (log10).
-0.274

Consider the variant `AUGUAU` . State its measured FACS-Seq fitted mean (log10).
0.196

Consider the variant `AGGACA` . State its measured FACS-Seq fitted mean (log10).
-0.014

Consider the variant `AGUGCA` . State its measured FACS-Seq fitted mean (log10).
-0.043

Consider the variant `GAGCAG` . State its measured FACS-Seq fitted mean (log10).
-0.596

Consider the variant `CGGAUU` . State its measured FACS-Seq fitted mean (log10).
-0.338

Consider the variant `GACAAC` . State its measured FACS-Seq fitted mean (log10).
0.197

Consider the variant `AAGAGA` . State its measured FACS-Seq fitted mean (log10).
-0.296

Consider the variant `AAGAAC` . State its measured FACS-Seq fitted mean (log10).
-0.842

Consider the variant `GAAUGA` . State its measured FACS-Seq fitted mean (log10).
-0.296

Consider the variant `GAAUUG` . State its measured FACS-Seq fitted mean (log10).
-0.0224
